Record form. Attribute: EC50. Fill in for each entry.
Biological target: hGIPR (Homo sapiens)
Sequence (P48546 22-466): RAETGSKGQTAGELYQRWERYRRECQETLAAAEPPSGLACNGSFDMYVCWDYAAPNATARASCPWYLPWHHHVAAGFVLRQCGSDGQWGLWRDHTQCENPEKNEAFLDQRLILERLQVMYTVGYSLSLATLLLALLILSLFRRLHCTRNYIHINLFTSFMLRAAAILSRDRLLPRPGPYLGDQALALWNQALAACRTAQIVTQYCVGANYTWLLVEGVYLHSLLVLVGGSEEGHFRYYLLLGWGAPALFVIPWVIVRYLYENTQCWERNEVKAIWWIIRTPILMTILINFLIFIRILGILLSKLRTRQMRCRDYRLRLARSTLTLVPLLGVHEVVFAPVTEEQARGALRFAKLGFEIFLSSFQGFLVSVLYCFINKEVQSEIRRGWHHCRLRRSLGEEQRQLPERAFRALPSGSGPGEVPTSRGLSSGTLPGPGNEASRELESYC
Assay: Functional cAMP activation in the presence of 0.1% casein (no HSA);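 further: intracellular cAMP rise after 30 min at 37 °C read by HTRF against a standard curve, scaled between buffer alone (0%) and top control ligand concentration (100%), four-parameter fit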
Format: cell-based
Conditions: in the presence of 0.1% casein (no HSA); geometric mean; read-out: Relative cAMP EC50, hGIPR
Starred links: 1 amine or outer side, 2 acyl side, 3 side chain; linkers in the order of their positions; H or OH if unused. Non-standard residues stand in square brackets, D forms with d. Groups on a side chain read outwards from the residue. *: point of attachment. C20 diacid = O=C(O)CCCCCCCCCCCCCCCCCCC(=O)*; C18 diacid = O=C(O)CCCCCCCCCCCCCCCCC(=O)*; Phe(4-CN) = N#Cc1ccc(C[C@H](N)C(=O)O)cc1; αMePhe(2-F) = C[C@](N)(Cc1ccccc1F)C(=O)O; γGlu = O=C(O)[C@H](CCC(=O)[*:2])N[*:1]; αMe4Pal = C[C@](N)(Cc1ccncc1)C(=O)O; αMeY = C[C@](N)(Cc1ccc(O)cc1)C(=O)O; 4Pal = N[C@@H](Cc1ccncc1)C(=O)O; αMeL = CC(C)C[C@](C)(N)C(=O)O; αMeS = C[C@](N)(CO)C(=O)O; Orn = NCCC[C@H](N)C(=O)O; AEEA = NCCOCCOCC(=O)O; Aib = CC(C)(N)C(=O)O
Provide only the numeric value, understood in nM.

Given the substance H-Y[Aib]QGTFTSD[4Pal]SQ[αMeL]LD[Orn]K([γGlu-γGlu-C18 diacid])AQ[αMe4Pal]AFIEYLIAGGPSSGEPPPSGS-NH2 [Example 1007] , what is its reported EC50?
0.116

Given the substance H-H[Aib]QGT[αMePhe(2-F)]TSDYSILLDKK([AEEA-γGlu-C20 diacid])AA[Aib]AFIEYLIETGPSSGEPPPSEG-NH2 [Example 290] , what is its reported EC50?
0.43

Given the substance H-Y[Aib]QGT[αMePhe(2-F)]TSD[4Pal][αMeS]I[αMeL]LD[Orn]K([AEEA-γGlu-C18 diacid])AQ[αMe4Pal]EFI[dE][αMeY]LIEGGPSSGAPPPSGE-NH2 [Example 1140] , what is its reported EC50?
0.00821

Given the substance H-Y[Aib]QGTFTSDFS[Orn][αMeL]LDKK([AEEA-AEEA-γGlu-C18 diacid])AQ[Aib]AFIEYLLE[dA]GPSSG[4Pal]PPPSGH-NH2 [Example 257] , what is its reported EC50?
0.135

Given the substance H-Y[Aib]QGT[αMePhe(2-F)]TSD[Phe(4-CN)]SKLLDKIAQK([AEEA-γGlu-C20 diacid])AFIEYLIEGGPSSGAPPPSGS-NH2 [Example 363] , what is its reported EC50?
0.375
